This section presents molecules with their documented pIC50 values.
target: human ADAMTS-5 (Homo sapiens (Human), UniProt Q9UNA0); conditions: read-out: hADAMTS-5 potency IC50
Sequence (Q9UNA0 262-930): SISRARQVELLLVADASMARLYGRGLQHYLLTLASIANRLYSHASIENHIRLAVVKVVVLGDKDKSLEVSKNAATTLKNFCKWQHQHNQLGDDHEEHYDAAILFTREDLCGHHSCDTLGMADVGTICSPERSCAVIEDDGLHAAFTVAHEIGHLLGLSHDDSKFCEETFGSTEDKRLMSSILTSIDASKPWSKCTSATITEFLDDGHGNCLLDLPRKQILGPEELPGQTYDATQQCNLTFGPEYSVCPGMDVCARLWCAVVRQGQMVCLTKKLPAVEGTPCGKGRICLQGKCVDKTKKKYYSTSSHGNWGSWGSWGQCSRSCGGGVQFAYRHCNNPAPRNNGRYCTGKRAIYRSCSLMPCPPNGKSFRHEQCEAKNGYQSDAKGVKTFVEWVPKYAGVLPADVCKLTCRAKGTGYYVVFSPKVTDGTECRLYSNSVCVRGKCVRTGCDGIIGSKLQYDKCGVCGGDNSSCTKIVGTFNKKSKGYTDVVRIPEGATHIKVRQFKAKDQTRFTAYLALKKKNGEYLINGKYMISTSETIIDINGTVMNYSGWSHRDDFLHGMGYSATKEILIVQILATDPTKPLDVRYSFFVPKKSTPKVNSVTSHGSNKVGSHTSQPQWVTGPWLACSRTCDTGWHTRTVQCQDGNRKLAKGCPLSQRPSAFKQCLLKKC
In textbook form, pIC50 equals minus log to base ten of the concentration in mol/L.

# annotated cases, reported pIC50 shown
* Cc1c(F)cccc1N1CCN(C(=O)CCC2(C)NC(=O)NC2=O)CC1 (stereo not shown) [compound 60] | 5.94
* CC1(CCC(=O)N2CCN(c3cccc(Cl)c3Cl)CC2)NC(=O)NC1=O (stereo not shown) [compound 41] | 5.58
* Cc1ccc(F)cc1N1CCN(C(=O)CCC2(c3ccccn3)NC(=O)NC2=O)CC1 (stereo not shown) [compound 104] | 7.37

Next up:
Query: If you can, please state the reported pIC50 value of Cc1ccccc1N1CCN(C(=O)CC[C@@]2(c3ccccc3)NC(=O)NC2=O)CC1 [compound 27] .
Reply: 7.05
